MEASUREMENT TARGET: DGKα (Homo sapiens, UniProt P23743)
Sequence (P23743 whole entry): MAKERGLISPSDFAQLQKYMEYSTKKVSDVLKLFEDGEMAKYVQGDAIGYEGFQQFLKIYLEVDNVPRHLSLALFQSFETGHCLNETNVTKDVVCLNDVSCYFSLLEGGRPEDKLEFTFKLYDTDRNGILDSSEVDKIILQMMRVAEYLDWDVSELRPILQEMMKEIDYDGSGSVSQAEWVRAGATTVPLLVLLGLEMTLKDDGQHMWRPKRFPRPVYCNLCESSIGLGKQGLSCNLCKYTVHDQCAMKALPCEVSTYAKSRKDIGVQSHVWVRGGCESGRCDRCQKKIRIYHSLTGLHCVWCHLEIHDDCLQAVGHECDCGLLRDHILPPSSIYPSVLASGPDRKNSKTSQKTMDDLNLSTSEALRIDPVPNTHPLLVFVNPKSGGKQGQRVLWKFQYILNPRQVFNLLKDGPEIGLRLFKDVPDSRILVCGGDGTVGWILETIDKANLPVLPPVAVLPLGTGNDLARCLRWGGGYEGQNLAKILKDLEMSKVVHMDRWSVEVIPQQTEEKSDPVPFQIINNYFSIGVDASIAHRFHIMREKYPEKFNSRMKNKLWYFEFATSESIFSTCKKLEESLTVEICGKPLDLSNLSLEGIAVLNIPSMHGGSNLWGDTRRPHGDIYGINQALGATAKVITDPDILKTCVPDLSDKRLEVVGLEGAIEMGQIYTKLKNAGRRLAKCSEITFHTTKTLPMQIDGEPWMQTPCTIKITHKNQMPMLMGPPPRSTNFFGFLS
RUN DESCRIPTION: DGK assay on OST-DGKα enriched MDCK homogenates
Assay type: biochemical
Set-up: expressed in transfected cells; host or cells: MDCK cells (vector-infected, doxycycline-induced), crude homogenate
CONDITION: residual OST-DGKα activity at 0.1, 1.0, 10.0 and 100.0 µM
Task for the reader: assign each of the following compounds its reported pIC50.
Units for pIC50: none; it is -log10 of a concentration expressed in mol/L.

Sample Cc1ccc(C(=O)N2CCN(CC(=O)c3c(C)[nH]c4cc(C)ccc34)CC2)cc1 ; pIC50 observed: 5.74

Sample Cc1ccc2c(C(=O)CN3CCN(C(=O)c4ccccc4C)CC3)c(C)[nH]c2c1 ; pIC50 observed: 4.48

Sample Cc1ccc2c(C(=O)CN3CCN(C(=O)c4cccc(Cl)c4)CC3)c(C)[nH]c2c1 ; pIC50 observed: 4.30

Sample Cc1ccc2c(C(=O)CN3CCN(C(=O)c4ccco4)CC3)c(C)[nH]c2c1 ; pIC50 observed: 5.16

Sample Cc1ccc2c(C(=O)CN3CCN(C(=O)c4cccs4)CC3)c(C)[nH]c2c1 ; pIC50 observed: 5.52

Sample Cc1ccc2c(C(=O)CN3CCN(C(=O)c4ccc(Cl)cc4)CC3)c(C)[nH]c2c1 ; pIC50 observed: 5.80

* * *

MEASUREMENT TARGET: DGKα (Homo sapiens, UniProt P23743)
RUN DESCRIPTION: DGK assay on OST-DGKα enriched MDCK homogenates
Type: biochemical
Parameters: expressed in transfected cells; host or cells: MDCK cells (vector-infected, doxycycline-induced), crude homogenate
CONDITION: 100 µM; percentage of residual DGKα activity compared to DMSO control; OST-DGKα overexpressing cell lysates, saturating DAG and ATP; read-out: Residue activity at 100 µM
Task for the reader: assign each of the following compounds its reported remaining activity at 100 µM.
Form entry: value (%) — number only.

Sample Cc1c(C(=O)CN2CCN(C(=O)c3ccco3)CC2)c2ccccc2n1C ; remaining activity at 100 µM observed: 130

Sample O=C(CN1CCN(C(=O)c2ccco2)CC1)c1c(-c2ccccc2)[nH]c2ccccc12 ; remaining activity at 100 µM observed: 81

Sample COc1ccc2c(C(=O)CN3CCN(C(=O)c4ccco4)CC3)c(C)n(C)c2c1 ; remaining activity at 100 µM observed: 126

Sample COc1ccc2[nH]c(C)c(C(=O)CN3CCN(C(=O)c4ccco4)CC3)c2c1 ; remaining activity at 100 µM observed: 115

Sample Cn1c(-c2ccccc2)c(C(=O)CN2CCN(C(=O)c3ccco3)CC2)c2ccccc21 ; remaining activity at 100 µM observed: 135

Sample CCCCCCC(=O)N1CCN(CC(=O)c2c(C)[nH]c3cc(C)ccc23)CC1 ; remaining activity at 100 µM observed: 48

Sample Cc1ccc2c(C(=O)CN3CCN(C(=O)c4ccc(Cl)cc4)CC3)c(C)[nH]c2c1 ; remaining activity at 100 µM observed: 6

Sample O=c1c2ccccc2[nH]c(=S)n1CCN1CCC(=C(c2ccc(F)cc2)c2ccc(F)cc2)CC1 ; remaining activity at 100 µM observed: 28

* * *

Task for the reader: assign each of the following compounds its reported melting point.

Sample Cc1ccc2c(C(=O)CN3CCN(C(=O)c4ccc(F)c(F)c4)CC3)c(C)[nH]c2c1 ; melting point observed: 233.8 to 235 °C

Sample Cc1ccc2c(C(=O)CN3CCN(C(=O)c4ccccc4C)CC3)c(C)[nH]c2c1 ; melting point observed: 200.5 to 201.6 °C

Sample Cc1ccc2c(C(=O)CN3CCN(C(=O)c4ccccc4)CC3)c(C)[nH]c2c1 ; melting point observed: 213.8 to 214.3 °C

Sample Cc1ccc2c(C(=O)CN3CCN(C(=O)c4cccnc4)CC3)c(C)[nH]c2c1 ; melting point observed: 216.2 to 216.8 °C

Sample COc1cccc(C(=O)N2CCN(CC(=O)c3c(C)[nH]c4cc(C)ccc34)CC2)c1 ; melting point observed: 209.8 to 210.4 °C

Sample Cc1ccc2c(C(=O)CN3CCN(C(=O)c4cccc(Cl)c4)CC3)c(C)[nH]c2c1 ; melting point observed: 222.3 to 223.5 °C

Sample Cc1ccc2c(C(=O)CN3CCN(C(=O)c4ccc(C#N)cc4)CC3)c(C)[nH]c2c1 ; melting point observed: 243.9 to 244.8 °C

Sample COc1ccc(C(=O)N2CCN(CC(=O)c3c(C)[nH]c4cc(C)ccc34)CC2)cc1 ; melting point observed: 219.9 to 220.8 °C
